biological target: Fibroblast growth factor 2 (Homo sapiens) (UniProt P09038); assay: FGF2 binders on small-molecule microarrays, primary screen, biochemical, small-molecule microarray, 635/667 nm fluorescence (AID 1133); settings: small-molecule microarray binding, FGF2, fluorescence 635/667; higher = more signal
Sequence (P09038 whole entry, looked up): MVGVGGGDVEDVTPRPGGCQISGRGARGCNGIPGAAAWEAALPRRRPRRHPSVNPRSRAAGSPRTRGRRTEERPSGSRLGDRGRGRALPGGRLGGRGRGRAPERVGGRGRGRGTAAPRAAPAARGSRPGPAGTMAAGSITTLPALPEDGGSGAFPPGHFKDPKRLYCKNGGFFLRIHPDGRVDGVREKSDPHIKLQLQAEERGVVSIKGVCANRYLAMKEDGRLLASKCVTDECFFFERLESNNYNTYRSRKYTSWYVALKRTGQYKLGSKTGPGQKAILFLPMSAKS
Parameter threshold = -0.2. Response is Met when composite z-score meets or exceeds it, else Not met.

Hi team, for CC(C)OC(=O)C=C1C[C@@H](c2ccc(C#N)cc2)O[C@@H](c2ccc(C#N)cc2)O1 , is the recorded composite z-score at or above -0.2?
Met

Hi team, for CC(C)[Si]1(C(C)C)O[C@@H](c2ccccc2)c2cc(C3CC3)nc(-c3ccccc3)c21 , is the recorded composite z-score at or above -0.2?
Not met

Hi team, for C[C@H]1Cc2c(-c3ccccc3)nc3c(c2CO1)CN(CCOc1ccccc1)CC3 , is the recorded composite z-score at or above -0.2?
Met

Hi team, for CC(CCC(=O)OC[C@H]1O[C@H](C#Cc2ccccc2)C=C[C@@H]1Oc1ccc(C)cc1)=NOC[C@@H](O)[C@H]1O[C@@H]2OC(C)(C)O[C@@H]2[C@H]1O , is the recorded composite z-score at or above -0.2?
Not met

Hi team, for COc1ccc(O[C@H]2C=C[C@@H](c3ccccc3)O[C@@H]2CON=C[C@@H](C)[C@H](OCc2ccccc2)C(C)C)cc1 , is the recorded composite z-score at or above -0.2?
Not met

Hi team, for CC(C)=CCCC(C)=CCON=C1[C@H]2CCn3c(=O)n(Cc4cc5c(cc4Cl)OCO5)c(=O)n3[C@H]2[C@H](O)[C@@H]2O[C@H]12 , is the recorded composite z-score at or above -0.2?
Met

Hi team, for CC(CCC(=O)OC[C@H]1O[C@H](C#Cc2ccccc2)C=C[C@@H]1Oc1ccc(C)cc1)=NOC[C@@H](O)COCc1ccco1 , is the recorded composite z-score at or above -0.2?
Not met

###

test: inhibitors of hydroxyurea-induced Chk1 phosphorylation, primary screen, imaging, HeLa, phospho-Chk1 antibody, percent positive cells (AID 1186); conditions: hydroxyurea-induced phospho-Chk1 immunofluorescence imaging, higher = more signal
For each entry below, report its z-score value.
Simply state the number, no unit and no words.

Consider COc1ccc([Si](C)(C)[C@@H]2[C@@H](CCO)O[C@]3(C(=O)N(Cc4ccc(NC(C)=O)cc4)c4ccccc43)[C@H]2C)cc1 . Its measured z-score is -0.861

Consider COCCOC(=O)N1C(=O)[C@@]2(c3cc(C#CC4(O)CCCCCC4)ccc31)[C@H](C(=O)N1CCN(c3ncccn3)CC1)[C@H]1C(=O)O[C@H](c3ccccc3)[C@H](c3ccccc3)N1[C@@H]2c1ccc(OCCO)cc1 . Its measured z-score is 0.124

Consider NC(=O)NCC#Cc1ccc2c(c1)[C@]1(C(=O)N2)[C@H](c2ccc(O)cc2)N2[C@H](c3ccccc3)[C@H](c3ccccc3)OC(=O)[C@H]2[C@@H]1C(=O)N1CCCCCCC1 . Its measured z-score is -0.374

Consider CCCC=C(CCC)[C@@H](NC(=O)c1ccc(-c2ccccc2)cc1)c1ccc(C(=O)OC)cc1 . Its measured z-score is 0.125

Consider COCCOC(=O)N1C(=O)[C@@]2(c3cc(C#CCNC(N)=O)ccc31)[C@H](c1ccc(O)cc1)N1[C@H](c3ccccc3)[C@H](c3ccccc3)OC(=O)[C@H]1[C@@H]2C(=O)N1CCCCCCC1 . Its measured z-score is 0.149

Consider CCN(CC)c1ccc(N2CC=CC34O[C@@H]5/C=C\CCC(C)OC(=O)C5[C@H]3C(=O)N(CCCO)[C@@H]4C2=O)cc1 (stereo partly specified) . Its measured z-score is 0.0745

###

For each entry below, report its z-score value.
assay: RPMI8226 myeloma cell viability, profiling panel, resazurin fluorescence, basal, 24 h, PK04 Diversity Set (AID 1180); settings: higher = more signal;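 note: RPMI8826 multiple myeloma cell line at 5000 cells per well; test concentration not given here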
Simply state the number, no unit and no words.

Consider COC(=O)[C@@H]1CC[C@H](C)[C@@H](c2ccc(C)cc2)N1C(=O)c1ccc(C=NOC(C)CN2CCCCc3nc(C)c(C)cc32)cc1 (stereo not given in full) . Its measured z-score is -0.0629

Consider CC(C)CON=C1C[C@@H](O)[C@@H](O)[C@@H]2[C@@H]3C(=O)N(C[C@@H]4CCCO4)C(=O)[C@@H]3CC[C@H]12 . Its measured z-score is 0.139

Consider CC1CC/C=C\[C@H]2OC34C=CCN(C(C)C)C(=O)[C@H]3N(CCCO)C(=O)[C@@H]4C2C(=O)O1 (stereo not given in full) . Its measured z-score is 0.817

Consider COC(=O)CC=C[C@@H](C)[C@@H](C=NO[C@@H](C)c1cc(-c2c(C)cc(C)cc2C)no1)OC . Its measured z-score is 0.197

Consider CN(C)CCCNC(=O)[C@@H]1c2ccccc2C(=O)N(Cc2cc(F)cc(C(F)(F)F)c2)[C@H]1c1ccc(CO)cc1 . Its measured z-score is -0.359

Consider O=C1[C@H]2[C@H]3[C@H](O)[C@H](O)CC(=NO[C@@H]4O[C@H](CO)[C@@H](O)[C@H](O)[C@H]4O)[C@@H]3CC[C@H]2C(=O)N1Cc1ccccc1 . Its measured z-score is -0.145

Consider COc1ccc(O[C@H]2C=C[C@@H](c3ccccc3)O[C@@H]2COC(=O)CCC(C)=NO[C@@H](C)c2cc(-c3c(C)cc(C)cc3C)no2)cc1 . Its measured z-score is 1.14

Consider CC(C)=NOCc1cccc(-c2cc(-c3ccccc3)no2)c1 . Its measured z-score is -0.975

Consider CN1C(=O)C2C=CC(C(O)c3ccc(Br)cc3)N(N(c3ccccc3)c3ccccc3)C2C1=O (stereo not given) . Its measured z-score is -0.629

Consider CCc1cc2c(nc1CC)CCN(CCC(C)=NOC(C)CN1CCCc3nc(C)c(C)cc31)C2 (stereo not given) . Its measured z-score is -0.615

Consider COCCOC(=O)N1C(=O)[C@@]2(c3cc(C#Cc4ccc(OC)cc4)ccc31)[C@H](c1ccc(O)cc1)N1[C@H](c3ccccc3)[C@H](c3ccccc3)OC(=O)[C@H]1[C@@H]2C(N)=O . Its measured z-score is -2.3

Consider CCOC(=O)CCN1C(=O)[C@H]2[C@H]3[C@H](O)[C@H](O)CC(=NOC[C@@H](O)COCc4ccco4)[C@@H]3CC[C@H]2C1=O . Its measured z-score is -0.8

Consider CCCCCN1CC=CC23O[C@@H]4C=CCOC(=O)[C@@H]4[C@H]2C(=O)N(C(CO)C(C)C)[C@@H]3C1=O (stereo not given in full) . Its measured z-score is -0.0045

Consider O=C1[C@H]2[C@H]3[C@H](O)[C@H](O)CC(=NOC[C@@H](O)COCc4ccco4)[C@@H]3CC[C@H]2C(=O)N1c1ccc(F)cc1F . Its measured z-score is 1.15

Consider CC(C)CON=C1C[C@@H](O)[C@@H](O)[C@@H]2[C@@H]3C(=O)N(Cc4ccccc4)C(=O)[C@@H]3CC[C@@H]12 . Its measured z-score is 0.731

Consider CC(C)(C)N1C(=O)[C@H]2[C@H]3[C@H](O)[C@H](O)CC(=NOCc4ccccc4)[C@@H]3CC[C@H]2C1=O . Its measured z-score is -1.34

Consider C=CC[C@@H]1C=C[C@H](ON=C[C@@H](OC)[C@H](C)C=CCC(=O)OC)[C@@H](CO)O1 . Its measured z-score is -0.707

Consider O=C1CCCC=C1C(O)CCOCc1ccccc1 (stereo not given) . Its measured z-score is 0.104

Consider CCOC(=O)NN=C1C[C@@H](O)[C@@H](O)[C@@H]2[C@@H]3C(=O)N(C4CCCCC4)C(=O)[C@@H]3CC[C@H]12 . Its measured z-score is -0.927

Consider CCOC(=O)NN=C1C[C@@H](O)[C@@H](O)[C@@H]2[C@@H]3C(=O)N(C(C)(C)C)C(=O)[C@@H]3CC[C@@H]12 . Its measured z-score is -0.559

Consider CCOC(=O)CCN1C(=O)[C@H]2[C@H]3[C@H](O)[C@H](O)CC(=NNC(=O)OCc4ccc(OC)cc4)[C@@H]3CC[C@H]2C1=O . Its measured z-score is -1.14

Consider O[C@@H](Cc1ccccc1)[C@H]1C2C=CCCC(c3ccccc3)=C2CN1Cc1cccc(Cl)c1 (stereo not given in full) . Its measured z-score is -0.0337

Consider COc1ccc(-c2nc3c(c4c2C[C@H](C)OC4)CN(CCC(C)C)CC3)cc1 . Its measured z-score is -0.239

Consider [N-]=[N+]=NCc1ccccc1[C@@H]1OC(c2ccc(OCCCO)cc2)=N[C@]1(Cc1ccccc1)C(=O)N1CCOCC1 . Its measured z-score is -0.425

Consider CC(C)OC(=O)C=C1C[C@@H](c2ccc(C#N)cc2)O[C@@H](c2ccc(C#N)cc2)O1 . Its measured z-score is -0.312

Consider O=C1O[C@@H](c2ccccc2)[C@@H](c2ccccc2)N2[C@@H](c3ccccc3OCCO)[C@]3(C(=O)Nc4ccc(C#CCCO)cc43)[C@@H](C(=O)O)[C@H]12 . Its measured z-score is 0.183

Consider COc1ccc(O[C@H]2C=C[C@@H](c3ccccc3)O[C@@H]2COC(=O)CCC(C)=NO[C@H](C)c2cn([C@@H]3COC[C@H]3O)nn2)cc1 . Its measured z-score is 0.18

Consider COC(=O)[C@H](C)NC(=O)CCC1CC(OC(=O)NCCc2ccc(F)cc2)CC2(CCCC(COC(=O)NCCc3ccc(Cl)cc3)O2)O1 (stereo not given in full) . Its measured z-score is 0.761

Consider COC(=O)C1=C(C)N(Cc2ccccc2)[C@]23O[C@](C(=O)OC)(C(=O)N2[C@@H]1c1ccccc1)[C@H]1CCOC(=O)[C@H]13 . Its measured z-score is 0.732

Consider C=C(COC)/C(=C/C[C@H](OC(=O)c1ccncc1)c1ccc(CO)o1)c1cc(C(=O)OC)ccc1OC . Its measured z-score is 0.343
